test: chemical genetic growth profiling, strain panel (AID 1159580);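 note: tested at 20 µM; growth read once vehicle control cultures reached saturation at 30 °C; 1 = growth at the plate median or of vehicle wells; lower values mean less growth of the strain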; conditions: S. cerevisiae deletion strains, growth OD, locus YNL209W, strain ssb2, active compounds read low
Among all 5,500 compounds or so, about 2,000 (36%) were called active. Inconclusive results (about 18%) are left out. The list shows a part of the results.
Below: a set of entries, each annotated with reported normalized growth.

COMPOUND	normalized growth
COc1cc([C@@H]2c3cc4c(c(O)c3C[C@H]3COC(=O)[C@@H]32)OCO4)cc(OC)c1OC	1
CCC(C)C(=O)O[C@H]1C[C@H](O)C=C2C=C[C@H](C)[C@H](CC[C@@H](O)C[C@@H](O)CC(=O)O)C21 (stereo partly drawn)	1.01
CC(C)COCC(CN(Cc1ccccc1)c1ccccc1)N1CCCC1 (stereo not drawn)	1.03
C#CCCCCCCCCCCCC(O)CC(O)COC(C)=O (stereo not drawn)	0.886
C=C1C(=O)O[C@@H]2C[C@@]3(C)CCC[C@H](C)C3=C[C@H]12	0.902
C=C1C(=O)O[C@@H]2C3O[C@]3(C)CC/C=C(\C)CC[C@@H]12 (stereo partly drawn)	0.979
O=C1[C@H](CCC(O)c2ccc(F)cc2)[C@@H](c2ccc(O)cc2)N1c1ccc(F)cc1 (stereo partly drawn)	0.99
Nc1nc2ncc(=O)[nH]c2c(=O)[nH]1	0.993
OCCOCCN1CCN(C2=Nc3ccccc3Sc3ccccc32)CC1	1.01
CO/N=C(\C(=O)N[C@@H]1C(=O)N2C(C(=O)O)=C(CSc3nc(=O)c(O)nn3C)CS[C@H]12)c1csc(N)n1	0.961
COC(=O)[C@@H]1OC(=O)[C@H]2O[C@@]23[C@@]1(C)CCC1[C@@]2(C)CCC(=O)C(C)(C)C2C[C@@H](OC(C)=O)[C@]13C (stereo partly drawn)	0.982
Clc1cccc(Cl)c1NC1=NCCN1	0.991
CC(C)NNC(=O)c1ccncc1	1.03
CC[C@H](C)C(=O)O[C@H]1CCC=C2C=C[C@H](C)C(CCC3C[C@@H](O)CC(=O)O3)[C@H]21 (stereo partly drawn)	1.02
C=C1C(=O)OC2CC1C(OC(C)=O)C/C(C)=C/CC/C(C)=C/CC[C@]2(C)O (stereo partly drawn)	0.991
COc1ccc(-c2coc3cc(OC)cc(OC)c3c2=O)cc1	0.995
COC(=O)C(C)c1ccc(C(=O)c2cccs2)cc1 (stereo not drawn)	1.01
CC(=O)OCC(OC(C)=O)C(OC(C)=O)C(OC(C)=O)C(OC(C)=O)C(COC(C)=O)OC(C)=O (stereo not drawn)	0.998
CO[C@@]1(NC(=O)CSCC#N)C(=O)N2C(C(=O)O)=C(CSc3nnnn3C)CSC21 (stereo partly drawn)	0.988
OC(Cn1cncn1)(Cn1cncn1)c1ccc(F)cc1F	1.01
O=C1C=C2C=C[C@@H]3C[C@@]2(O1)[C@H]1CCCCN31	1
Cc1coc2c1C(=O)C(=O)c1c-2ccc2c1CCCC2(C)C	0.954
CCCC(=O)O[C@]1(C(=O)CO)CCC2[C@@H]3CCC4=CC(=O)CC[C@]4(C)C3[C@@H](O)C[C@@]21C (stereo partly drawn)	1
COc1ccc(CCN2CCC(Nc3nc4ccccc4n3Cc3ccc(F)cc3)CC2)cc1	0.962
Cc1cc(NC(=O)C2=C(O)c3ccccc3S(=O)(=O)N2C)no1	0.96
OCc1ccccc1O	1.02
CC(C)[C@@H]1CC[C@@H](C)C[C@H]1O	0.985
CC(C(=O)O)c1ccc(C(=O)c2cccs2)cc1 (stereo not drawn)	1.01
Cc1ccc(C)c(OCCCC(C)(C)C(=O)O)c1	0.99
C#CCCCCCCCCCCCC(O)CC(O)CO (stereo not drawn)	0.996
C=CCCCCCCCCCCCC(O)CC(O)COC(C)=O (stereo not drawn) (tested in a mixture with another compound)	0.965
COc1cc(OC)c2c(=O)c(-c3ccccc3)coc2c1	0.984
O=c1cc[nH]c(=S)[nH]1	1
COC(=O)C[C@H]1C(C)(C)C(=O)[C@@H]2CC3=C(CC[C@]4(C)C3=CC(=O)O[C@H]4c3ccoc3)[C@@]1(C)C2=O	0.984
C[N+]1(C)C2CC(OC(=O)[C@@H](CO)c3ccccc3)CC1C1OC12 (stereo partly drawn)	0.959
COc1ccc2c(c1OC)C(=O)OC2[C@H]1c2c(cc3c(c2OC)OCO3)CCN1C (stereo partly drawn)	1
COc1ccc2c(c1)O[C@H]1c3ccc(OC)cc3OC[C@@H]21	1.01
Oc1ccc(Cl)cc1	1
C[C@H]1COC2=C1C(=O)C(=O)c1c2ccc2c1CCCC2(C)C	0.817
CC1C[C@H]2CC(=O)[C@H]3CCCN4CCC[C@H]2[C@]34C1 (stereo partly drawn)	1.01
CO/N=C(\C(=O)N[C@@H]1C(=O)N2C(C(=O)O)=C(COC(C)=O)CS[C@H]12)c1csc(N)n1	0.99
CC(=O)N[C@@H](CS)C(=O)O	1
COC(=O)C(O)c1ccccc1 (stereo not drawn)	1.01

The measured values listed here are drawn from PubChem BioAssay AID1159580.
